Would you kindly list herbicidal rate, Chenopodium album for each of these compounds?
System: Chenopodium album
Experiment: Test Example 3: herbicidal effect test by treatment of dry field farming soil (one day after seeding)
Format: in vivo
Details: 120 g/10a active ingredient, evaluated 14 days after treatment
Method: This test was conducted in a double system per one agent solution concentration area, and the herbicidal rates (%) were determined by the following equation (Math. 1) on 14 days after the treatment with the agents. […] Pots with a size of 36 cm^2 were filled with a dry field farming soil (alluvium). […] The herbicidal effects were evaluated by the same standard as that in Test Example 1 on 14 days after the treatment with the agents. […]
Numbers only; they are read as %.

Q: Request body: readout herbicidal rate, Chenopodium album, system Chenopodium album, query Cc1c(Cc2ccccc2N(C(=O)CC(C)C)S(=O)(=O)C(F)(F)F)c(=O)on1C(C)c1ccccc1 (stereo not shown) . Return the value.
Ans: 90

Q: Request body: readout herbicidal rate, Chenopodium album, system Chenopodium album, query COC(=O)N(c1ccccc1Cc1c(C)n(C(C)c2ccccc2)oc1=O)S(=O)(=O)C(F)(F)F (stereo not shown) . Return the value.
Ans: 90

Q: Request body: readout herbicidal rate, Chenopodium album, system Chenopodium album, query CCCC(C)n1oc(=O)c(Cc2ccccc2N(C(C)=O)S(=O)(=O)C(F)(F)F)c1C (stereo not shown) . Return the value.
Ans: 40

Q: Request body: readout herbicidal rate, Chenopodium album, system Chenopodium album, query `CCCCn1oc(=O)c(Cc2ccccc2N(S(=O)(=O)C(F)(F)F)S(=O)(=O)C(F)(F)F)c1C` . Return the value.
Ans: 40

The origin of these recorded values is patent US11109593B2.
